Biological target: His-GST-PARP7 (Homo sapiens (Human))
Assay: PARP7 biochemical assay
Details: read-out: PARP7 IC50

# compound, IC50
data = [
    ("CC#Cc1ccc2c(=O)[nH]nc(Cc3ccc(F)c(C(=O)N4CCN(c5ccc(C#N)cn5)C(=O)C4(C)C)c3)c2c1", "< 50 nM"),
    ("N#Cc1ccc(N2CCCC23CN(C(=O)c2cc(Cc4n[nH]c(=O)c5ccc(OC6CCC6)cc45)ccc2F)C3)nc1", "500 to 2000 nM"),
    ("N#Cc1ccc(N2CCN(C(=O)c3cc(Cc4n[nH]c(=O)c5ccc(OCC(F)(F)F)cc45)ccc3F)CC2)nc1", "< 50 nM"),
    ("N#Cc1ccc(N2C[C@H]3C[C@@H]2CN3C(=O)c2cccc(Cc3n[nH]c(=O)c4ccc(-c5cccnc5)cc34)c2)nc1 (stereo in doubt)", "100 to 500 nM"),
    ("N#Cc1ccc(N2CC3CCC2CN3C(=O)c2cc(Cc3n[nH]c(=O)c4ccc(OC5CCC5)cc34)ccc2F)nc1 (stereo not shown)", "50 to 100 nM"),
    ("O=C(c1ccc(Cc2n[nH]c(=O)c3ccc(OC4CCC4)cc23)cc1F)N1CCN(c2ncc(C(F)(F)F)cn2)CC1", "> 2000 nM"),
    ("COc1cc2c(Cc3cccc(C(=O)N4CCN(c5ccc(C#N)cn5)CC4)c3)n[nH]c(=O)c2cc1F", "< 50 nM"),
]

* * *

Here the recorded pIC50 is given for each entry.
Target: PARP1 (Homo sapiens (Human), UniProt P09874)
Sequence (P09874 whole entry, species assumed): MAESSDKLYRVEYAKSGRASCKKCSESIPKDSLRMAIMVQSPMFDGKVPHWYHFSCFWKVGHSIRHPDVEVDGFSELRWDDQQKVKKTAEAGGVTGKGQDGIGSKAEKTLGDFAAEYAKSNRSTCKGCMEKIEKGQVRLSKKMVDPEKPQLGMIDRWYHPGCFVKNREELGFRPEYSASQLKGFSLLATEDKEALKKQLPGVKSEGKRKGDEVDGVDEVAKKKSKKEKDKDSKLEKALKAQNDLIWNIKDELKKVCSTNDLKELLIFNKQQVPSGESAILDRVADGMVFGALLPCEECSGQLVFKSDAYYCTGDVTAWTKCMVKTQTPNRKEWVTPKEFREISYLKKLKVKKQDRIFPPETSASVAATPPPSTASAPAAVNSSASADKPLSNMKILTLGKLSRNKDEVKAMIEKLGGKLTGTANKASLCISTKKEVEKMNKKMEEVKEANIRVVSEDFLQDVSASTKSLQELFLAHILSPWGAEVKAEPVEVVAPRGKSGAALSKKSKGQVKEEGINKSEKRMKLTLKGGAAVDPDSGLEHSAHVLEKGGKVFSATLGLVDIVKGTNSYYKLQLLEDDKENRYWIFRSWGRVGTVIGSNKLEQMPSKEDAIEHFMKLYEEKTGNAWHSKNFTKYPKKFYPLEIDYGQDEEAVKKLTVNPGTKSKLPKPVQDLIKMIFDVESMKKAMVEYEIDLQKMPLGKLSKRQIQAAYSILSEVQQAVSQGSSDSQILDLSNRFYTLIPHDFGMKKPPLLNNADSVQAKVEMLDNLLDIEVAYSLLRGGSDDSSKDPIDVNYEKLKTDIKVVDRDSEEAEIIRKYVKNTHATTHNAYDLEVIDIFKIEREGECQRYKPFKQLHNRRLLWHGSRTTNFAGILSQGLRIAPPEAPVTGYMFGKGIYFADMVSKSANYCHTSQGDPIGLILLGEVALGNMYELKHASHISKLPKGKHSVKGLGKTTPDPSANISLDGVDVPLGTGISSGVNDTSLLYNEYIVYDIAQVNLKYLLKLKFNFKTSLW
Assay: PARP1 biochemical assay
pIC50: −log10 of the molar value.
measured-quantity: pIC50

# compound, result
records = [
    ("N#Cc1ccc(N2CCN(C(=O)c3cccc(Cc4n[nH]c(=O)c5ccc(OC6CCC6)cc45)n3)CC2)nc1 [Example 176]", "7.00 to 7.30"),
    ("N#Cc1ccc(N2CCN(C(=O)c3cccc(Cc4n[nH]c(=O)c5c(F)c(F)ccc45)c3)CC2)nc1 [Example 87]", "> 7.30"),
    ("CC#Cc1cc(C(F)(F)F)c2c(=O)[nH]nc(Cc3ccc(F)c(C(=O)N4CCN(c5ccc(C#N)cn5)CC4)c3)c2c1 [Example 84]", "6.30 to 7.00"),
    ("C#CC(C)Oc1ccc2c(=O)[nH]nc(Cc3ccc(F)c(C(=O)N4CCN(c5ccc(C#N)cn5)CC4)c3)c2c1 (stereo not drawn) [Example 8]", "6.30 to 7.00"),
    ("CC#Cc1ccc2c(=O)[nH]nc(Cc3ccc(F)c(C(=O)N4CCn5c(nnc5C(F)(F)F)C4)c3)c2c1 [Example 65]", "7.00 to 7.30"),
    ("CC#Cc1ccc2c(=O)[nH]nc(CNC(C)CC(=O)N3CCN(c4ncc(C(F)(F)F)cn4)CC3)c2c1 (stereo not drawn) [Example 191]", "< 5.70"),
    ("CC#Cc1ccc2c(=O)[nH]nc(Cc3ccc(F)c(C(=O)N4CCN(c5ccc(C#N)cn5)CC4)c3)c2c1C [Example 86]", "7.00 to 7.30"),
    ("COc1cc2c(Cc3cccc(C(=O)N4CCN(c5ccc(C#N)cn5)CC4)c3)n[nH]c(=O)c2cc1F [Example 82]", "> 7.30"),
    ("N#Cc1ccc(N2CCN(C(=O)c3cncc(Cc4n[nH]c(=O)c5ccc(OC6CCC6)cc45)c3)CC2)nc1 [Example 177]", "7.00 to 7.30"),
]

* * *

The entries below come with measured IC50 values attached.
Target: His-GST-PARP7 (Homo sapiens (Human), UniProt Q7Z3E1)
Sequence (Q7Z3E1 whole entry): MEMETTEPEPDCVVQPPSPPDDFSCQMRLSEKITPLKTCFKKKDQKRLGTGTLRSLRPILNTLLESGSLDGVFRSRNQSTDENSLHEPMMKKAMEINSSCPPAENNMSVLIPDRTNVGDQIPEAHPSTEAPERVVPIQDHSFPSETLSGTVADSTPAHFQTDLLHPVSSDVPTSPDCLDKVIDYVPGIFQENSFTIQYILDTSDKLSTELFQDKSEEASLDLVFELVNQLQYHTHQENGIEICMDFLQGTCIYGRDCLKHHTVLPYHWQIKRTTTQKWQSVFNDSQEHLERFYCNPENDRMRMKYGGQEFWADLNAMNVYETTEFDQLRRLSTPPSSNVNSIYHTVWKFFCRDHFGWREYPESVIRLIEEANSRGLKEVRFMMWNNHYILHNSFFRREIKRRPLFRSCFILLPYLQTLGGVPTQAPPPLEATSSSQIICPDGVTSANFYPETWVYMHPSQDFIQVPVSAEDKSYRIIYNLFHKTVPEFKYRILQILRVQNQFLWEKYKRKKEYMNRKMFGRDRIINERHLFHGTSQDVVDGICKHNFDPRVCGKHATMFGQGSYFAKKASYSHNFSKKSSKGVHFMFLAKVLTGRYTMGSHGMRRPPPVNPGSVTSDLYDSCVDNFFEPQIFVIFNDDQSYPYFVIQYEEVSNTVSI
Assay: PARP7 biochemical assay
Settings: read-out: PARP7 IC50
measured-quantity: IC50

# compound, result
data = [
    ("N#Cc1ccc(N2CCN(C(=O)c3cc(Cc4n[nH]c(=O)c5ccc(NCCC(F)(F)F)cc45)ccc3F)CC2)nc1 [Example 33]", "< 0.05 µM"),
    ("N#Cc1ccc(N2CCN(C(=O)c3cc(Cc4n[nH]c(=O)c5ccc(N6CC(C(F)(F)F)C6)cc45)ccc3F)CC2)nc1 [Example 34]", "< 0.05 µM"),
    ("O=c1[nH]nc(Cc2cccc3c(N4CCN(c5ncc(C(F)(F)F)cn5)CC4)noc23)c2cc(OC3CCC3)ccc12 [Example 207]", "> 2 µM"),
    ("N#Cc1ccc(N2CCN(C(=O)c3cc(Oc4n[nH]c(=O)c5ccccc45)ccc3F)CC2)nc1 [Example 190]", "0.1 to 0.5 µM"),
    ("O=C(c1cc(Cc2n[nH]c(=O)c3ccc(OC4CCC4)cc23)ccc1F)N1CCn2c(nnc2C(F)F)C1 [Example 163]", "< 0.05 µM"),
    ("CC#Cc1cc2c(Cc3ccc(F)c(C(=O)N4CCN(c5ccc(C#N)cn5)CC4)c3)n[nH]c(=O)c2cc1C [Example 83]", "< 0.05 µM"),
    ("CC#Cc1ccc2c(=O)[nH]nc(Cc3ccc(F)c(C(=O)N4CCN(c5cncc(C#N)n5)CC4)c3)c2c1 [Example 55]", "0.1 to 0.5 µM"),
]

* * *

Parameter GI50: see the listing below.
Test system: HARA (human lung squamous cell carcinoma) cells
Experiment: Cell proliferation assay (CellTiter-Glo), HARA
Type: cell-based
Conditions: Homo sapiens, 144 h; 6 days, CellTiter-Glo; read-out: HARA GI50

# test-smiles, GI50
data = [
    ("O=C(c1cc(Cc2n[nH]c(=O)c3ccc(OC4CCC4)cc23)ccc1F)N1CCN(c2ncc(C3CC3)cn2)CC1", "0.1 to 1 µM"),
    ("CC#Cc1ccc2c(=O)[nH]nc(Cc3ccc(F)c(C(=O)N4CCN(c5cc(C(=O)NC)ccn5)CC4)c3)c2c1", "> 5 µM"),
    ("N#Cc1ccc(N2CCN(C(=O)c3cc(Cc4n[nH]c(=O)c5cccnc45)ccc3F)CC2)nc1", "> 5 µM"),
    ("CC#Cc1ccc2c(=O)[nH]nc(Cc3ccc(F)c(C(=O)N4CCN(c5ccc(C#N)cn5)CC(F)(F)C4)c3)c2c1", "1 to 5 µM"),
]

* * *

Biological target: UniProt:Q7Z3E1
Assay: PARP7 biochemical assay
Settings: read-out: PARP7 IC50
measured-quantity: IC50

# compound, result
records = [
    ("N#Cc1ccc(N2CCN(C(=O)c3cc(Cc4n[nH]c(=O)c5ccc(OC6CCC6)cc45)ccc3F)[C@@H]3C[C@@H]32)nc1 (stereo in doubt)", "< 0.05 µM"),
    ("CC#Cc1ccc2c(=O)[nH]nc(Cc3cc(C(=O)N4CCN(c5ccc(C#N)cn5)CC4)c(F)cc3F)c2c1", "< 0.05 µM"),
    ("O=C(c1cc(Cc2n[nH]c(=O)c3ccc(C#CC4CC4)cc23)ccc1F)N1CCN(c2ncc(C(F)(F)F)cn2)CC1", "0.1 to 0.5 µM"),
    ("CN1CCN(C(=O)c2ccc(Cc3n[nH]c(=O)c4c(F)cccc34)cc2)CC1", "> 2 µM"),
    ("N#Cc1ccc(N2CCN(C(=O)c3cccc(Cc4n[nH]c(=O)c5c(F)c(F)ccc45)c3)CC2)nc1", "< 0.05 µM"),
    ("N#Cc1ccc(N2CCN(C(=O)c3cc(Cc4n[nH]c(=O)c5cccnc45)ccc3F)CC2)nc1", "0.05 to 0.1 µM"),
    ("COc1cc2c(Cc3ccc(F)c(C(=O)N4CCN(c5ccc(C#N)cn5)CC4)c3)n[nH]c(=O)c2cn1", "< 0.05 µM"),
]

* * *

Target: PARP2 (Homo sapiens (Human), UniProt Q9UGN5)
Sequence (Q9UGN5 whole entry): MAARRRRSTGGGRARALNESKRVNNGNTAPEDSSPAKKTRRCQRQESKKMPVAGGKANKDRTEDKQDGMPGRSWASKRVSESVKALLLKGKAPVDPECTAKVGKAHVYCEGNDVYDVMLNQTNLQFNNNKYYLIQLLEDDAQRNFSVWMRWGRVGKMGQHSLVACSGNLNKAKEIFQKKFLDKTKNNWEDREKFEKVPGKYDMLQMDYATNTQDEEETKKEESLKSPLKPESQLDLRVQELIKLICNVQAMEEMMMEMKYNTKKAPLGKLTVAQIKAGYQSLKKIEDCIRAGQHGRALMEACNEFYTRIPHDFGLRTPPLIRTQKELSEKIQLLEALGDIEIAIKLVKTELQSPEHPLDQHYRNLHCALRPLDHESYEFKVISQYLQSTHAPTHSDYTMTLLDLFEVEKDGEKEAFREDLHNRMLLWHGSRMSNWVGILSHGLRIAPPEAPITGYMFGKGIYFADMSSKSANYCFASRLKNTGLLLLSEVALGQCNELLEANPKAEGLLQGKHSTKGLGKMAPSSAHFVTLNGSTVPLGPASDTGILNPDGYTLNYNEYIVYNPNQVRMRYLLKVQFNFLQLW
Assay: PARP2 biochemical assay
Settings: read-out: PARP2 IC50
pIC50: −log10 of the molar value.

# compound, pIC50
records = [
    ("N#Cc1ccc(N2CCN(C(=O)c3cc(Cc4n[nH]c(=O)c5ccc(C#CC6CC6)cc45)ccc3F)CC2)nc1 [Example 37]", "5.70 to 6.30"),
    ("N#Cc1ccc(N2CCN(C(=O)c3cc(Cc4n[nH]c(=O)c5ccc(C6CC6)cc45)ccc3F)CC2)nc1 [Example 40]", "6.30 to 7.00"),
    ("CC(F)(F)c1ccc2c(=O)[nH]nc(Cc3ccc(F)c(C(=O)N4CCN(c5ccc(C#N)cn5)CC4)c3)c2c1 [Example 36]", "> 7.30"),
    ("COc1cc2c(Cc3cccc(C(=O)N4CCN(c5ccc(C#N)cn5)CC4)c3)n[nH]c(=O)c2cc1F [Example 82]", "> 7.30"),
    ("N#Cc1ccc(N2CCN(C(=O)c3cncc(Cc4n[nH]c(=O)c5ccc(OC6CCC6)cc45)c3)CC2)nc1 [Example 177]", "6.30 to 7.00"),
    ("CC#Cc1ccc2c(=O)[nH]nc(Cc3ccc(F)c(C(=O)N(C)CCN(CC)c4ccc(C#N)cn4)c3)c2c1 [Example 198]", "< 5.70"),
    ("CC#Cc1cc(Cl)c2c(=O)[nH]nc(Cc3ccc(F)c(C(=O)N4CCN(c5ccc(C#N)cn5)CC4)c3)c2c1 [Example 85]", "7.00 to 7.30"),
    ("CC#Cc1ccc2c(=O)[nH]nc(Cc3ccc(F)c(C(=O)NCCN(CC)c4ccc(C#N)cn4)c3)c2c1 [Example 197]", "< 5.70"),
    ("CC#Cc1ccc2c(=O)[nH]nc(Cc3cc(F)c(F)c(C(=O)N4CCN(c5ccc(C#N)cn5)CC4)c3)c2c1 [Example 74]", "7.00 to 7.30"),
    ("CN(C)CC#Cc1ccc2c(=O)[nH]nc(Cc3ccc(F)c(C(=O)N4CCN(c5ncc(C(F)(F)F)cn5)CC4)c3)c2c1 [Example 46]", "6.30 to 7.00"),
    ("CCc1ccc2c(=O)[nH]nc(Cc3ccc(F)c(C(=O)N4CCN(c5ncc(C(F)(F)F)cn5)CC4)c3)c2c1 [Example 43]", "6.30 to 7.00"),
    ("N#Cc1ccc(N2CCN(C(=O)c3cc(Cc4n[nH]c(=O)c5ccc(N6CC(C(F)(F)F)C6)cc45)ccc3F)CC2)nc1 [Example 34]", "5.70 to 6.30"),
    ("N#Cc1ccc(N2CCN(C(=O)c3cc(Cc4n[nH]c(=O)c5ccc(N6CC(F)(F)C6)cc45)ccc3F)CC2)nc1 [Example 18]", "6.30 to 7.00"),
    ("CC#Cc1ccc2c(=O)[nH]nc(Cc3ccc(F)c(C(=O)N4CCN(c5ccc(C#N)cn5)CC4C)c3)c2c1 (centres unmarked) [Example 61]", "> 7.30"),
]

The origin of these recorded values is patent US20260055079A1.
